# Assayed system: Cyclin-dependent kinase 5 activator 1 (Homo sapiens) + Cyclin-dependent kinase 5 (Homo sapiens) (UniProt Q15078+Q00535)
# Sequence (Q00535 whole entry, looked up): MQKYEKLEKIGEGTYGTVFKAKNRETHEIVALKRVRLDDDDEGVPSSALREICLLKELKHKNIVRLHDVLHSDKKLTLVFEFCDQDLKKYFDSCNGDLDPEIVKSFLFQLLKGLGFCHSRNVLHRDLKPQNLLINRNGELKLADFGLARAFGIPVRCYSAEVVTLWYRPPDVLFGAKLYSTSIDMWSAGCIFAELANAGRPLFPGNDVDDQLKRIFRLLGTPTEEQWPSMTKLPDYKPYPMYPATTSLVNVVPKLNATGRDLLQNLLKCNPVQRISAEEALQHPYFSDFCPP
# Sequence (Q15078 whole entry, looked up): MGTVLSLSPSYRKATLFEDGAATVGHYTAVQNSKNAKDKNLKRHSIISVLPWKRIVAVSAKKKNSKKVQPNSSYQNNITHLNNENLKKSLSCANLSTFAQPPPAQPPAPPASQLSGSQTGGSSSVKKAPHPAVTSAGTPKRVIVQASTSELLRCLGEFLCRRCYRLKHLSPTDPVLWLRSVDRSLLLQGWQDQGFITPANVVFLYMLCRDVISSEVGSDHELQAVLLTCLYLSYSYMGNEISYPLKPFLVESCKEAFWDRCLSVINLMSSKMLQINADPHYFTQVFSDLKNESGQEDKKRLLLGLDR
# Run description: CDK5/p35 kinase inhibitors, dose response, biochemical, cherry-picked samples, set 2 (AID 504545)
# Reported conditions: biochemical plate reader; series mostly up to 30 µM
Results with a measured potency or affinity are listed apart. Results filed as inconclusive are left out. Activity calls are given as the source filed them. How the calls were made is not given here.
Assay readout: outcome

CC(=O)[C@H]1CC[C@H]2[C@@H]3CC=C4C[C@@H](OS(=O)(=O)O)CC[C@]4(C)[C@H]3CC[C@]12C	inactive
COc1ccccc1C(=O)N1CCN(c2ccccn2)CC1	inactive
O=C(c1ccc(F)cc1)c1cnc(Nc2ccccc2)s1	inactive
O=C(O)c1ccc(N/N=C/c2ccc(C(F)(F)F)cc2)cc1	inactive
Cc1nc(Nc2ccccc2)sc1C(=O)c1ccc(F)cc1	inactive

Reported outcome, compound CC(C)(C)N=Cc1c(O)ccc2oc3c(c12)CCCC3 : ____ inactive

Next up: COc1ccc(C(=O)c2sc(Nc3ccccc3F)nc2N)cc1 inactive

Next up: CC(C)n1cnc2c(N(C)c3cccc(Cl)c3)nc(N(CCO)CCO)nc21 inactive
